// melting point lookup, one value per entry
# output: bare number, implied unit °C

For orientation, consider the following solved cases.
>>> readout_value("CN(C)C(=O)c1cc(N2CCC2c2ccc(F)cc2)c2nc(N3CCOCC3)cnc2c1 (single isomer, unassigned) [Compound 397a]")
80
>>> readout_value("CN(C)C(=O)c1cc(N2CCCC2c2cc(F)cc(F)c2)c2nc(N3CCOCC3)cnc2c1 (stereo not shown) [Compound 395]")
80
>>> readout_value("CN(C)C(=O)c1cc(C(CO)N(C)c2cccc(F)c2)c2nc(N3CCOCC3)cnc2c1 (stereo not shown)")
315

Kindly review the next molecule as well.
-- ask Look up melting point: CNCCNC(=O)c1cc(C(C)Nc2cc(F)ccc2F)c2nc(N3CCOCC3)cnc2c1 (stereo not shown)
-- reply 80

====

As a worked illustration, we turn to Kd data collected for kinase enzymes (Homo sapiens).
State the answer as a number, implicitly in µM.

Worked examples, 3 molecules total:
>>> readout_value("CC(Nc1cc(F)cc(F)c1)c1cc(C(=O)N(C)C)cc2ncc(N3CCOCC3)nc12 (single isomer, unassigned) [Compound 13]")
23.9
>>> readout_value("CC(Nc1ccc(F)c(F)c1)c1cc(C(=O)N2CC[C@@H](O)C2)cc2ncc(N3CCOCC3)nc12 (single isomer, unassigned) [Compound 300a]")
1.48
>>> readout_value("CC(Nc1cccc(F)c1)c1cc(C(=O)N2CCC[C@H](O)C2)cc2ncc(N3CCOCC3)nc12 (single isomer, unassigned) [Compound 320a]")
0.513

-- ask Param item = CC(Oc1cccc(F)c1)c1cc(C(=O)N(C)C)cc2ncc(N3CCOCC3)nc12 (racemic) [Compound 339] ; retrieve measured Kd.
-- reply 5.89

====

Each entry below carries its reported log10(Kd).
- EXPERIMENTAL SYSTEM: PI3Kβ (Homo sapiens, UniProt P42338)
- Construct: purchased DiscoveRx Corporation, San Diego (contract service, KINOMEscan)
- Sequence (P42338 whole entry): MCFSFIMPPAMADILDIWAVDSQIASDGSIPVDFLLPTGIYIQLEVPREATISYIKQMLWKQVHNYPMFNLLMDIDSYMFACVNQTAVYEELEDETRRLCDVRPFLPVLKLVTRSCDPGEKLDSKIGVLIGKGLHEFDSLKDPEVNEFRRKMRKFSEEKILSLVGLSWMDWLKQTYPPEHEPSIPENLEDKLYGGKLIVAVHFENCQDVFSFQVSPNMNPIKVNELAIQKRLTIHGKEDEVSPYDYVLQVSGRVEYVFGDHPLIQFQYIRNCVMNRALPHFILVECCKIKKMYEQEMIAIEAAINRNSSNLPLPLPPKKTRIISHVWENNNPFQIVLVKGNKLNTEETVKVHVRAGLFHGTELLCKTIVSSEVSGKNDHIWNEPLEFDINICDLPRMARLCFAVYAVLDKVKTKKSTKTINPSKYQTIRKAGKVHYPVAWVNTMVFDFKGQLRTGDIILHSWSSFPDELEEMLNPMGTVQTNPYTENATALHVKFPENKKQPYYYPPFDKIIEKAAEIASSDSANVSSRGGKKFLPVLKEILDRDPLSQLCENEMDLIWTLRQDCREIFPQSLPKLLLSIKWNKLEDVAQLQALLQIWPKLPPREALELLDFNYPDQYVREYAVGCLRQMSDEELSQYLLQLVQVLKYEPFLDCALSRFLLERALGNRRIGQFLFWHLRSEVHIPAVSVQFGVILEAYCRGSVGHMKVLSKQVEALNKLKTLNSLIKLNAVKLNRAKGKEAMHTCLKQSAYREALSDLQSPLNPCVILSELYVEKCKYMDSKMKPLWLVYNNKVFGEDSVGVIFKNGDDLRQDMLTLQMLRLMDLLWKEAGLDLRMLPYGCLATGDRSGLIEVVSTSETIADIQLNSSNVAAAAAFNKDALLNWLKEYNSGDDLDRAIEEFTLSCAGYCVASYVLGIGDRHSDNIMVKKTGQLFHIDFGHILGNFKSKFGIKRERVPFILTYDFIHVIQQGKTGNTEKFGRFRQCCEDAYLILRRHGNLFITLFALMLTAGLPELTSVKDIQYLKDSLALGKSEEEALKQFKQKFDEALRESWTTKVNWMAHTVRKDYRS
- TEST: Enzyme binding assay (KINOMEscan, DiscoveRx)
- CONDITION LABEL: PIK3Cβ_h, read-out: Kd PIK3Cβ_h
Parameter value (number): base-10 log of Kd in nM.

Field: example entries. Status: answers known.
>>> readout_value("CC(Nc1cc(F)cc(F)c1)c1cc(C(=O)NCCO)cc2ncc(N3CCOCC3)nc12 (single isomer, unassigned) [Compound 189]")
3.40
>>> readout_value("CC(Nc1ccc(F)c(F)c1)c1cc(C(=O)NC2CCNC2)cc2ncc(N3CCOCC3)nc12 (stereo not shown) [Compound 325a]")
3.12
>>> readout_value("CC(Nc1cc(F)c(F)c(F)c1)c1cc(C(=O)NCC(C)(C)O)cc2ncc(N3CCOCC3)nc12 (single isomer, unassigned) [Compound 292a]")
1.23
>>> readout_value("Cc1cc(C2CCCN2c2cc(F)cc(F)c2)c2nc(N3CCOCC3)cnc2c1 (single isomer, unassigned) [Compound 107]")
2.56
>>> readout_value("O=C(c1cc(C2CCCN2c2cc(F)cc(F)c2)c2nc(N3CCOCC3)cnc2c1)N1CC(O)C1 (stereo not shown)")
0.00
>>> readout_value("CC(Nc1ccc(F)c(F)c1)c1cc(C(=O)NCCN(C)C)cc2ncc(N3CCOCC3)nc12 (stereo not shown) [Compound 299b]")
1.78

Kindly consider the entry below.
-- ask Identify the measured log10(Kd) of CC(Oc1cc(F)cc(F)c1)c1cc(C(=O)N(C)C)cc2ncc(N3CCOCC3)nc12 (single isomer, unassigned) [Compound 6] for PI3Kβ (Homo sapiens, UniProt P42338).
-- reply 3.28

====

Recorded Kd by entry
- EXPERIMENTAL SYSTEM: kinase enzymes (Homo sapiens, UniProt P42336)
- Sequence (P42336 whole entry): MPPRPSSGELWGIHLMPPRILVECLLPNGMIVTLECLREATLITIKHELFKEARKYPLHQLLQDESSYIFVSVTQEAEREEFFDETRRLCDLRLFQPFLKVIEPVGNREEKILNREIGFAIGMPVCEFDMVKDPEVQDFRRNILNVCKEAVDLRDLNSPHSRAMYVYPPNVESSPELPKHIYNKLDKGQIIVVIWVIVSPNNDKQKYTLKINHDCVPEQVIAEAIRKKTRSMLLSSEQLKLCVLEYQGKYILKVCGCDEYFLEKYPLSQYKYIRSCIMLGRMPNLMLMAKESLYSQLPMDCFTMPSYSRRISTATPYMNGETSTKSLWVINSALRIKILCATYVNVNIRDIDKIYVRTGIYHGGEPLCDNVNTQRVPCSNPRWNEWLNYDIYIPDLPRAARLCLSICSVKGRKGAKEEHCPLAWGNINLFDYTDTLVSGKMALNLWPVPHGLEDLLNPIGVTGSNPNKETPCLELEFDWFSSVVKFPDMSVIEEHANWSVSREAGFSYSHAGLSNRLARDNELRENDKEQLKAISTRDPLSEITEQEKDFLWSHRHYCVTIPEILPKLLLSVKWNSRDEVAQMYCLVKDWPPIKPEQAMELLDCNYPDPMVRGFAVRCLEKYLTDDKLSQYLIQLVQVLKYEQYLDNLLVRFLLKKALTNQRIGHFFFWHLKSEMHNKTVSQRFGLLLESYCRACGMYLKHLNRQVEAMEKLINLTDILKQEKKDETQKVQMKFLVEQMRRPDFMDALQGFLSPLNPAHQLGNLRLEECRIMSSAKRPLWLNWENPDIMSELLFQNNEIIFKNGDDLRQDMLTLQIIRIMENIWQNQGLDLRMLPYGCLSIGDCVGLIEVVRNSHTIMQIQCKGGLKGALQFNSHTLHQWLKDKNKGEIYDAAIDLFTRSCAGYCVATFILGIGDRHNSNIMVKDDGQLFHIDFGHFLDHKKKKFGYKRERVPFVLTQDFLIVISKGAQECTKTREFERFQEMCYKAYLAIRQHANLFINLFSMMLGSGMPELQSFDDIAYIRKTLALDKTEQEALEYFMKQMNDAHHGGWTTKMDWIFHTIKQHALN
Quick note: give the figure in µM, leave out the unit.

Previously resolved entries follow.
>>> readout_value("Cc1c(F)cccc1CN(C)c1cc(C(=O)N2CCNC(C(F)(F)F)C2)cc2ncc(N3CCOCC3)nc12 (single isomer, unassigned) [Compound 367a]")
4.07
>>> readout_value("O=C(c1cc(C2CCCN2c2cc(F)cc(F)c2)c2nc(N3CCOCC3)cnc2c1)N1CCC1 (single isomer, unassigned) [Compound 37]")
6.17

-- ask Test system kinase enzymes (Homo sapiens, UniProt P42336); read-out Kd; what value for CC(Nc1cc(F)cc(F)c1)c1cc(C(=O)N2CCN(C)CC2)cc2ncc(N3CCOCC3)nc12 (stereo not shown) [Compound 144] ?
-- reply 1.74

-- ask Query for kinase enzymes (Homo sapiens, UniProt P42336): what Kd does the record show for CC(c1cc(C(=O)N(C)C)cc2ncc(N3CCOCC3)nc12)N(C)c1cccc(Cl)c1 (stereo not shown) [Compound 141] ?
-- reply 6.61

-- ask Please provide the recorded Kd for CC(Oc1cc(F)cc(F)c1)c1cc(C(=O)N(C)C)cc2ncc(N3CCOCC3)nc12 (single isomer, unassigned) [Compound 5] , tested on kinase enzymes (Homo sapiens, UniProt P42336).
-- reply 1.59

-- ask Please tell me: Kd of CN(C)CCNC(=O)c1cc(CNc2cc(F)cc(F)c2)c2nc(N3CCOCC3)cnc2c1 [Compound 394] , system kinase enzymes (Homo sapiens, UniProt P42336)?
-- reply 3.24

-- ask So what Kd did Cc1cccc(N(C)C(C)c2cc(C(=O)N(C)C)cc3ncc(N4CCOCC4)nc23)c1 (single isomer, unassigned) [Compound 127] get with kinase enzymes (Homo sapiens, UniProt P42336)?
-- reply 6.46

====

This document collects log10 of Kd values reported for UniProt:P48736.
Sequence (P48736 whole entry): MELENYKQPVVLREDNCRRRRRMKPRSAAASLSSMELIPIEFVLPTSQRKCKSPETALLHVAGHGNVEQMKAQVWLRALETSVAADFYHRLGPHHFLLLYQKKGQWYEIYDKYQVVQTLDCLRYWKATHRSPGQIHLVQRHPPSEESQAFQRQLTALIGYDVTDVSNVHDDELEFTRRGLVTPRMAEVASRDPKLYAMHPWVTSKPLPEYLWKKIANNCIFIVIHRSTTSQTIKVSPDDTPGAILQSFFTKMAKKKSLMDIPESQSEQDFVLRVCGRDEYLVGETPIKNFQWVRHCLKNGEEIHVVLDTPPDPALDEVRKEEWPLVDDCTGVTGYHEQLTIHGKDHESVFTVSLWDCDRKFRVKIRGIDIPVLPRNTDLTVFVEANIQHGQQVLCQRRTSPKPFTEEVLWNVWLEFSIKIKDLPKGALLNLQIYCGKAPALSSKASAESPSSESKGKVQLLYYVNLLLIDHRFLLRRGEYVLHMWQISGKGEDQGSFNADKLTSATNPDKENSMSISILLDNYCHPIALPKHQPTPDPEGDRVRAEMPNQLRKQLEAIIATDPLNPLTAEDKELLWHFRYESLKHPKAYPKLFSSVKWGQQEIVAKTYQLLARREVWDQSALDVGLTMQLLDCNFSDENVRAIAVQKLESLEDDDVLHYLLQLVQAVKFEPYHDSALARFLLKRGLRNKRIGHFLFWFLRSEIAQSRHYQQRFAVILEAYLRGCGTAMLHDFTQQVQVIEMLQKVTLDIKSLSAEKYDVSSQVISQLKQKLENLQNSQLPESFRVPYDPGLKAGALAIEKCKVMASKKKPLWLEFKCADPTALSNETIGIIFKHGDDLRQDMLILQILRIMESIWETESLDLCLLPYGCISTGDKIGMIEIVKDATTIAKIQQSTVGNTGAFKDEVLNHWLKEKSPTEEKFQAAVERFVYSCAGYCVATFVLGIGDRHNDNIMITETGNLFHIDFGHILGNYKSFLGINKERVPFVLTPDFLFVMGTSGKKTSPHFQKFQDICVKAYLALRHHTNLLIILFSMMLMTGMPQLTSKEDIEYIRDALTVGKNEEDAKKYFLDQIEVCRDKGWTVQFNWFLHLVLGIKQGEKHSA
On a log10 scale: recorded Kd, unit µM.

-- ask What is its log10 of Kd for UniProt:P48736? Entry: O=C(c1cc(C2CCCN2c2cc(F)cc(F)c2)c2nc(N3CCOCC3)cnc2c1)N1CC(O)C1 (centres unmarked)
-- reply -0.70

-- ask Look up log10 of Kd with UniProt:P48736 for this compound: CN(C)C(=O)c1cc(C2CCCN2c2cc(F)cc(C=O)c2)c2nc(N3CCOCC3)cnc2c1 (centres unmarked)
-- reply -0.20

-- ask Observed log10 of Kd on UniProt:P48736 for CC(Nc1cccc(Br)c1)c1cc(C(=O)N2CCOCC2)cc2ncc(N3CCOCC3)nc12 (centres unmarked) , please.
-- reply 0.89

-- ask Hello, I am looking for reported log10 of Kd with UniProt:P48736 for CC(Nc1cc(F)c(F)c(F)c1)c1cc(C(=O)NC[C@@H](C)O)cc2ncc(N3CCOCC3)nc12 (single isomer, unassigned) [Compound 284b] . Could you help?
-- reply 0.71

-- ask What value of log10 of Kd on UniProt:P48736 does CC(C)NCc1cc(F)cc(N2CCCC2c2cc(C(=O)N(C)C)cc3ncc(N4CCOCC4)nc23)c1 (centres unmarked) have?
-- reply 0.88

====

Below, each entry is listed with its recorded Kd.
- EXPERIMENTAL SYSTEM: kinase enzymes (Homo sapiens)
Your answer should be a plain number; it is taken to be in µM.

>>> readout_value("CN[C@H]1CCN(C(=O)c2cc(C(C)Nc3ccc(F)c(F)c3)c3nc(N4CCOCC4)cnc3c2)C1 (single isomer, unassigned) [Compound 365b]")
15.5
>>> readout_value("Cc1cc(F)cc(N2CCCC2c2cc(C(=O)N(C)C)cc3ncc(N4CCOCC4)nc23)c1 (stereo not drawn)")
0.162

Lab note: next molecule to report on.
-- ask Any idea what Kd was measured for CN[C@H]1CCN(C(=O)c2cc(C(C)Oc3cc(F)c(F)c(F)c3)c3nc(N4CCOCC4)cnc3c2)C1 (single isomer, unassigned) [Compound 405b] ?
-- reply 5.01

====

- EXPERIMENTAL SYSTEM: PI3Kδ (Homo sapiens, UniProt O00329)
- Sequence (O00329 1-1044): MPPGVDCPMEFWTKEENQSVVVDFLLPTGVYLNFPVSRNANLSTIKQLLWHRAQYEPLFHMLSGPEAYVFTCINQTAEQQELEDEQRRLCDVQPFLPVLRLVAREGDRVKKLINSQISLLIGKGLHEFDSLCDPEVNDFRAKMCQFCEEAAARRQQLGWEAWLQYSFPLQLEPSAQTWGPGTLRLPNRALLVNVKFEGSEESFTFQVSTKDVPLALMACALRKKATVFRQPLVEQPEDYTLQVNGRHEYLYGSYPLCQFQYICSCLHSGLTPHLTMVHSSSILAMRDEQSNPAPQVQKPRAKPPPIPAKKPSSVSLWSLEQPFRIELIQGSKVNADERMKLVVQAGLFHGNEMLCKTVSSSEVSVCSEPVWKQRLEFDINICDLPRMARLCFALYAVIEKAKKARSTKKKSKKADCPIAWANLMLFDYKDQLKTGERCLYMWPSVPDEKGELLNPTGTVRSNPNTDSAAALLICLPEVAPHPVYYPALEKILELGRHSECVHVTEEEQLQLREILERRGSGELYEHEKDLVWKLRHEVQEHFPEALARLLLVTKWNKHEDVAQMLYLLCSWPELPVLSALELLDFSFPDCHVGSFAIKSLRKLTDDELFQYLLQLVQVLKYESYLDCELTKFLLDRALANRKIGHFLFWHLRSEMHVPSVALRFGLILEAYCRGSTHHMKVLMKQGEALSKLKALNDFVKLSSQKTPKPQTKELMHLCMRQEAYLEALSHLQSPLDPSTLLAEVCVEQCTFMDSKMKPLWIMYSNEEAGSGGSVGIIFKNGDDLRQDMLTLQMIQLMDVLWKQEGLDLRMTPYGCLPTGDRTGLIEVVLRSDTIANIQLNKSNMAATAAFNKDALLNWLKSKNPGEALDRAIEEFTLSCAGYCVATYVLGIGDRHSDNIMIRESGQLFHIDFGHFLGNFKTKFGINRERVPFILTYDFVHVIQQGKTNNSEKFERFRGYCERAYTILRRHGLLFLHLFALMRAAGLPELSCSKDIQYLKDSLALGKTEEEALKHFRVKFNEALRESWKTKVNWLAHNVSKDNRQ
Kd listing for selected molecules.
Field format: number, assumed nM, no unit text.

-- ask // query Kd value for entry CC(Nc1ccc(F)c(F)c1)c1cc(C(=O)NC[C@@H](C)O)cc2ncc(N3CCOCC3)nc12 (single isomer, unassigned) [Compound 346b]
-- reply 20900

-- ask Which measured Kd value corresponds to CC(Nc1cc(F)cc(F)c1)c1cc(CNCCS(C)(=O)=O)cc2ncc(N3CCOCC3)nc12 (stereo not shown) ?
-- reply 372

-- ask I am curious: what Kd value has been reported for CNCCNC(=O)c1cc(C2CCCN2c2cc(F)cc(F)c2)c2nc(N3CCOCC3)cnc2c1 (stereo not shown) [Compound 72] ?
-- reply 17

-- ask Consider the molecule CC(Nc1cc(F)c(F)c(F)c1)c1cc(C(=O)NCCO)cc2ncc(N3CCOCC3)nc12 (single isomer, unassigned) [Compound 213] and give its measured Kd.
-- reply 269

-- ask May I ask what Kd has been recorded for CNCCNC(=O)c1cc(C(C)Nc2cccc(F)c2)c2nc(N3CCOCC3)cnc2c1 (stereo not shown) [Compound 282] ?
-- reply 68

-- ask # lookup: Kd of CC(Oc1cccc(F)c1)c1cc(C(=O)O)cc2ncc(N3CCOCC3)nc12 (single isomer, unassigned) [Compound 257b]
-- reply 468
